# assayed target: Peroxisome proliferator-activated receptor alpha (Homo sapiens)
# Sequence (Q07869 whole entry): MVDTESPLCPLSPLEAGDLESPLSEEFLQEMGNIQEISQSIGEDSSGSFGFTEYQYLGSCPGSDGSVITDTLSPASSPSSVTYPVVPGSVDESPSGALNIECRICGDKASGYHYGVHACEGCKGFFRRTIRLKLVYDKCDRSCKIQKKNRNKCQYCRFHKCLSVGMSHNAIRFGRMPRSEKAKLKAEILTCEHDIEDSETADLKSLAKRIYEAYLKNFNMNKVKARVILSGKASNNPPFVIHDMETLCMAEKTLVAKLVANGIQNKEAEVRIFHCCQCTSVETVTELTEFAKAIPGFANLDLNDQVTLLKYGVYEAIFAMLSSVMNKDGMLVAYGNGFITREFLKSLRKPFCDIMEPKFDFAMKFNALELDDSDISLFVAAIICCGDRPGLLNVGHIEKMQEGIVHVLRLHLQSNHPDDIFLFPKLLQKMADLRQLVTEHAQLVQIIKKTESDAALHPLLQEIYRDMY
# assay notes: Inhibition of PPARalpha receptor
measure: IC50 (nM)

chemical_string=CCC(=O)NC[C@H](Cc1ccc(OCCc2nc(-c3ccccc3)oc2C)cc1)N/C(C)=C\C(=O)c1ccc(C(F)(F)F)cc1 measure=IC50 assay_value=240
